test system: Pseudomonas aeruginosa; experiment: Antimicrobial activity against Pseudomonas aeruginosa MTCC 1688 at 0.02 ml of 1 mg/ml after 24 hrs by cup plate method; format: functional; conditions: MTCC 1688, 24 h, read-out: DIZ
// reported zone of inhibition at 1000 µg/mL per item
measuredQuantity: zone of inhibition at 1000 µg/mL (mm)

{"columns": ["molecule", "tgt", "resultValue"],
 "data": [
  ["COc1ccc(/C=C(/NC(=O)c2ccccc2)C(=O)NCC(=O)N(C(=O)NC2CCCCC2)C2CCCCC2)cc1", "Pseudomonas aeruginosa", 10.3],
  ["O=C(NCC(=O)N(C(=O)NC1CCCCC1)C1CCCCC1)/C(=C\\c1ccc(F)cc1)NC(=O)c1ccccc1", "Pseudomonas aeruginosa", 17.6],
  ["COc1ccc(/C=C(/NC(=O)c2ccccc2)C(=O)NC(CS)C(=O)N(C(=O)NC2CCCCC2)C2CCCCC2)cc1 (centres undefined)", "Pseudomonas aeruginosa", 17.7],
  ["O=C(NCC(=O)N(C(=O)NC1CCCCC1)C1CCCCC1)/C(=C\\c1ccc(Cl)cc1)NC(=O)c1ccccc1", "Pseudomonas aeruginosa", 9.2]
]}

###

system: Escherichia coli; test: Antimicrobial activity against Escherichia coli ESS 2231 at 0.02 ml of 1 mg/ml after 24 hrs by cup plate method; format: functional; conditions: ESS 2231, 24 h, read-out: DIZ

{"columns": ["compound", "unitSymbol", "zone of inhibition at 1000 µg/mL"],
 "data": [
  ["O=C(NCC(=O)N(C(=O)NC1CCCCC1)C1CCCCC1)/C(=C\\c1ccc(O)cc1)NC(=O)c1ccccc1", "mm", 19.8],
  ["O=C(NC(CS)C(=O)N(C(=O)NC1CCCCC1)C1CCCCC1)/C(=C\\c1ccc(O)cc1)NC(=O)c1ccccc1 (stereo not drawn)", "mm", 23.5],
  ["CC(C)c1ccc(/C=C(/NC(=O)c2ccccc2)C(=O)NCC(=O)N(C(=O)NC2CCCCC2)C2CCCCC2)cc1", "mm", 18.1],
  ["O=C(NC(CS)C(=O)N(C(=O)NC1CCCCC1)C1CCCCC1)/C(=C\\c1ccc(Cl)cc1)NC(=O)c1ccccc1 (stereo not drawn)", "mm", 18.3],
  ["COc1ccc(/C=C(/NC(=O)c2ccccc2)C(=O)NC(CS)C(=O)N(C(=O)NC2CCCCC2)C2CCCCC2)cc1 (stereo not drawn)", "mm", 16.4],
  ["O=C(NCC(=O)N(C(=O)NC1CCCCC1)C1CCCCC1)/C(=C\\c1ccc(Cl)cc1)NC(=O)c1ccccc1", "mm", 16.3],
  ["O=C(NCC(=O)N(C(=O)NC1CCCCC1)C1CCCCC1)/C(=C\\c1ccc(F)cc1)NC(=O)c1ccccc1", "mm", 16.5],
  ["O=C(NC(CS)C(=O)N(C(=O)NC1CCCCC1)C1CCCCC1)/C(=C\\c1ccc(F)cc1)NC(=O)c1ccccc1 (stereo not drawn)", "mm", 14.3]
]}

###

tested on: Rattus norvegicus; assay: Antiinflammatory activity in Wister rat assessed as inhibition of carrageenan-induced paw edema at 100 mg/kg, po administered 1 hr before carrageenan challenge measured after 3 hrs by plethysmograph analysis; format: functional
The following compounds are listed with their measured inhibition in vivo at 100 mg/kg values.

{"columns": ["compound", "inhibition in vivo at 100 mg/kg (%)"],
 "data": [
  ["O=C(NCC(=O)N(C(=O)NC1CCCCC1)C1CCCCC1)/C(=C\\c1ccccc1)NC(=O)c1ccccc1", 35.5],
  ["O=C(NC(CS)C(=O)N(C(=O)NC1CCCCC1)C1CCCCC1)/C(=C\\c1ccccc1)NC(=O)c1ccccc1 (stereo unspecified)", 43.4],
  ["O=C(NCC(=O)N(C(=O)NC1CCCCC1)C1CCCCC1)/C(=C\\c1ccc(F)cc1)NC(=O)c1ccccc1", 20.6],
  ["O=C(NCC(=O)N(C(=O)NC1CCCCC1)C1CCCCC1)/C(=C\\c1ccc(Cl)cc1)NC(=O)c1ccccc1", 15.2],
  ["O=C(NC(CS)C(=O)N(C(=O)NC1CCCCC1)C1CCCCC1)/C(=C\\c1ccc(O)cc1)NC(=O)c1ccccc1 (stereo unspecified)", 41.3],
  ["Cc1ccc(/C=C(/NC(=O)c2ccccc2)C(=O)NC(CS)C(=O)N(C(=O)NC2CCCCC2)C2CCCCC2)cc1 (stereo unspecified)", 35.5]
]}

Origin of the recorded values: ChEMBL document CHEMBL3232756
